Overview of recorded pKd for various binders
Molecular target: T1, Rb^P S648T (human, UniProt P06400 380-788, S648T)
T1 construct: also called variant 46
T1 sequence (looked up): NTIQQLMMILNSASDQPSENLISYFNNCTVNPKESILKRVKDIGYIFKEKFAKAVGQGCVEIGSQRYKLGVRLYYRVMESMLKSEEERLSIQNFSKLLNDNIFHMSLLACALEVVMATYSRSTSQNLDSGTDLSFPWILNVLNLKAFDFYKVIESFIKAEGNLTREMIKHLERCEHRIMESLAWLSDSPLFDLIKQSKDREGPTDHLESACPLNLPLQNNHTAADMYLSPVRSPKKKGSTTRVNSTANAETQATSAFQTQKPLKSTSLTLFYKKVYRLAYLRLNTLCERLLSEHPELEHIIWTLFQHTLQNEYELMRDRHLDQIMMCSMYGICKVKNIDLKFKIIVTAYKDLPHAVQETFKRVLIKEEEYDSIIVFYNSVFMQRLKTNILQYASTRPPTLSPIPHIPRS
Assay: fluorescence polarisation; 37 °C, after the 25 °C reading ramped over 7 min to 37 °C and 2 min incubation; unlabeled Rb^P against 1.5 nM TMR-E2F1^TD or 7.5 nM TMR-E7^LxCxE; 25 mM Tris pH 8.0, 200 mM NaCl, 1 mM DTT, 0.1% Tween-20; apparent Kd
Conditions: both partners purified
No end group written: not given here. TMR = tetramethyl rhodamine dye
Worth noting: pKd values are minus log10 of concentrations stated in mol/L.

- DLYCYEQLN (also: TMR label, position not given here, source: synthetic peptide, bought: GenScript) [TMR-E7^LxCxE, LxCxE peptide of the E7 oncoprotein from HPV]: 7.85

Next item in the queue.
Find the recorded pKd belonging to {TMR}-GEGIRDLFDCDFGDLTPLD (also called E2F^TD; source: synthetic peptide, bought: GenScript) [TMR-E2F1^TD, peptide of the E2F1 transactivation domain] and report it.
7.24

Reference source for all entries: paper PMC11931385
